The reported measurements were obtained from PubChem BioAssay (NCI).

Test: NCI Yeast Anticancer Drug Screen. Data for the mlh1 rad18 strain (AID 175)
Conditions: S. cerevisiae mlh1 rad18 strain growth inhibition; at 50.0 µM; hits give high values
Compounds without any hit were thinned out: in the full panel of roughly 79,000, 15% have a hit. Calls of active or inactive are those of the source. Cut-off read from the data, not from the text of the source: active = growth inhibition above about 70%; inactive = the rest.
// values below are reported growth inhibition

# compound_smiles, measure, recorded_value
measured = [
    ("Cc1cc(C)nc(NS(=O)(=O)c2ccc(NC(=O)c3ccncc3)cc2)n1", "growth inhibition", "-17.1% (inactive)"),
    ("CCOc1ccccc1NC(=O)C1=C(C)NC(C)=C(C(=O)Nc2ccccc2OCC)C1c1ccc([N+](=O)[O-])cc1", "growth inhibition", "-7.2% (inactive)"),
    ("CCOC(=O)CCCN(c1sc(C)c(-c2ccccc2)c1C(=O)OCC)S(=O)(=O)c1ccc(C)cc1", "growth inhibition", "4.5% (inactive)"),
    ("NCCCCCCCCCCCCN", "growth inhibition", "19% (inactive)"),
    ("Cn1c2ccccc2n2c(=O)c(-c3ccc(Cl)cc3)nnc12", "growth inhibition", "-35.4% (inactive)"),
    ("O=C(Cl)C(Cl)(c1ccccc1)c1ccccc1", "growth inhibition", "3.75% (inactive)"),
]

Req: Please give the measured growth inhibition for this molecule: CC(C)CCC(C)(C)O
Resp: 34.2% (inactive)

Req: # repeat for Cc1sc2nc3n(c(=O)c2c1C)N=CN(c1ccccc1)C3
Resp: -16.7% (inactive)

* * *

Test: NCI Yeast Anticancer Drug Screen. Data for the sgs1 mgt1 strain (AID 161);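 note: 0% = growth of cultures given vehicle only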
Conditions: S. cerevisiae sgs1 mgt1 strain, at 50.0 µM, hits give high values
Method: Growth inhibition of yeast strains with defined genetic alterations is measured as a screen for potential anti-cancer activity. Selected strains with alterations in DNA damage repair or cell cycle control were exposed to compounds and growth inhibition was measured relative to vehicle treated controls. The strain used in this assay is sgs1 mgt1
This is part of a sample that, as a whole, favours compounds with a hit. Of some 79,000 tested, about 15% had one in any assay.
Readings of growth inhibition for the listed molecules
Report only the number, with the unit % understood.

# molecule, growth inhibition [%]
records = [
    ("O=c1c(O)c(-c2ccccc2)oc2cc(O)cc(O)c12", 40.9),
    ("CCCCC/C=C1\\CCC(CN2CCOCC2)C1=O (centres undefined)", 91.9),
    ("NCCCCN(CCCN)C(=O)c1ccccc1", -17.8),
    ("O[C@]12c3ccccc3C1CCCCC2N1CCOCC1 (some centres undefined)", -61),
    ("O=[N+]([O-])c1ccc(C=Nc2ccc3c(c2)Cc2ccccc2-3)cc1", 9.9),
    ("CC(=O)OC1COC(Cl)C(OC(C)=O)C1OC(C)=O (centres undefined)", 0.1),
]

Req: What value of growth inhibition has been reported for the following molecule? O=C(O)CNC(=O)c1cccc(Cl)c1
Resp: 14.7

Req: Try O/N=C1\CCCCC1C(NO)c1ccccc1 (centres undefined) next.
Resp: -7.9

Req: Same question, O=C(NC1CCCCC1NC(c1ccccc1)(c1ccccc1)c1ccccc1)C(=O)NC1CCCCC1NC(c1ccccc1)(c1ccccc1)c1ccccc1 (centres undefined) this time
Resp: -13.7

* * *

growth inhibition by entry:
Assay: NCI Yeast Anticancer Drug Screen. Data for the bub3 strain (AID 167)
Conditions: S. cerevisiae bub3 mutant strain, at 50.0 µM, hits give high values
The panel holds about 79,000 compounds, 15% with a hit somewhere; the sample as a whole holds those more often.
Answer format: numeric, % implied, no suffix.

Some entries whose results are on file:
# compound_smiles, unit_descriptor, growth inhibition
data = [
    ("Nc1nc(Cc2ccccc2)nc2[nH]ncc12", "%", -8.9),
    ("CC(=O)OCc1ccc(Cl)cc1Cl", "%", -33.4),
    ("CC(=O)c1ccc(I)cc1", "%", 14.1),
]

Now take the following compound into account.
Req: Look up growth inhibition for this compound: COc1ccc(NC(=O)C(=O)Cc2nc3ccc(C(=O)c4ccccc4)cc3[nH]c2=O)c([N+](=O)[O-])c1
Resp: 11.8

* * *

Test: NCI Yeast Anticancer Drug Screen. Data for the bub3 strain (AID 167)
Conditions: S. cerevisiae bub3 mutant strain, at 50.0 µM, hits give high values
Compounds without any hit were thinned out: in the full panel of roughly 79,000, 15% have a hit. Calls of active or inactive are those of the source. Cut-off read from the data, not from the text of the source: active = growth inhibition above about 70%; inactive = the rest. Where a SMILES comes first, the peptide text is derived from it. [ ]: non-standard residue; d: D form. The star is where a group is joined. Cbz = O=C(OCc1ccccc1)*; Dha = C=C(N)C(=O)O
measure: growth inhibition

Reference set (3 entries):
# compound, growth inhibition
rows = [
    ("CC1(C)C(=O)NC(=O)N1CO", "14.9% (inactive)"),
    ("O=c1oc2ccccc2c2c1cnn2-c1ccccc1", "-21.7% (inactive)"),
    ("CN1N(c2ccccc2)C(=O)C2=NC=C(C(=O)c3ccccc3)C(=N)C21C (stereo not drawn)", "7.7% (inactive)"),
]

Req: Recorded growth inhibition of O=C(OCOC(=O)c1ccccc1)c1ccccc1 , please.
Resp: -4.7% (inactive)

Req: // next record C=C(NC(=O)CNC(=O)OCc1ccccc1)C(=O)O (Cbz-Gly-[Dha]-OH)
Resp: 15.7% (inactive)

* * *

Assay: NCI Yeast Anticancer Drug Screen. Data for the mlh1 rad18 strain (AID 175)
Settings: S. cerevisiae mlh1 rad18 strain growth inhibition; at 50.0 µM
The panel holds about 79,000 compounds, 15% with a hit somewhere; the sample as a whole holds those more often. The source made the active and inactive calls. Rule as the data show it: active = growth inhibition above about 70%; inactive = the rest.
Your reply should match one of these outcome classes. active, inactive

# compound, assigned_class
records = [
    ("O=C1C2=C(c3ccccc31)C(c1ccc([N+](=O)[O-])cc1)NC(=S)N2 (centres undefined)", "inactive"),
]

Req: I would be grateful if you could indicate the recorded call for CC(=O)OCC1OC(n2c(Br)nc3c2c(=O)n(C)c(=O)n3C)C(OC(C)=O)C1OC(C)=O (centres undefined) .
Resp: inactive

* * *

# growth inhibition per entry
Experiment: NCI Yeast Anticancer Drug Screen. Data for the rad50 strain (AID 155);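 note: 0% = growth of vehicle-only cultures of the same strain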
Details: S. cerevisiae rad50 strain growth inhibition; at 50.0 µM; hits give high values
Compounds without any hit were thinned out: in the full panel of roughly 79,000, 15% have a hit.
Just the number please, in %, no unit attached.

Solved entries:
# compound, recorded_value
rows = [
    ("O=C1c2ccc(O)cc2OC(c2ccc(O)c(O)c2)C1O (stereo not given)", 7.6),
    ("O=C(OCc1ccccc1CN1CCOCC1)c1ccc(Cl)cc1", 42.1),
    ("COc1nc(C(=O)O)c(Cl)c(OC)c1Cl", -34.6),
    ("O=C1N(CCN2CCC3(CC2)OCCO3)CCN1c1cc(Cl)cc(Cl)c1", 56.9),
    ("O=C1CNC(=O)N1c1ccccc1", 7.35),
    ("O=C(OCC1OCOC(COC(=O)c2ccccc2)C(OC(=O)c2ccccc2)C1OC(=O)c1ccccc1)c1ccccc1 (stereo not given)", 9.85),
    ("Cc1nn(-c2ccccc2)c(=O)n2c1nc1ccccc12", -2),
    ("CCCCN(CCOc1ccnc(=O)[nH]1)CC(C)C", 6),
    ("COc1ccc(C(=O)/C=C/C(C)=C/C=N/N(C)c2ccccc2)cc1", 14),
    ("N#Cc1ccc(Sc2ccccc2)cc1C#N", 12.8),
]

Req: Request the reported growth inhibition associated with O=C1CC(c2ccccc2)C(c2ccccc2)C1C(=O)OC1CCCCC1 (stereo not given)
Resp: 0.5

Req: Follow-up item: COc1cc(C=O)cc(OC)c1
Resp: -19.3

Req: Okay, and C=CC(CO)N(CC)CC (stereo not given) ?
Resp: 9.55

Req: Also, O=C1NC(Cc2ccc(O)cc2)C(=O)N2CCCC12 (stereo not given) please.
Resp: 1.25

Req: Follow-up item: O=C(O)c1cnc2cccc([N+](=O)[O-])c2c1
Resp: 2.5

Req: Please answer likewise for CCOC(=O)C(=NNc1cc(OC)c(Cl)cc1OC)C(=O)OCC
Resp: 8.25

Req: Can you check CC(=O)OC/C=C(\C)CC(/C=C(C)/C=C/C1=C(C)CCCC1(C)C)S(=O)(=O)c1ccccc1 (stereo not given) next?
Resp: 35.5

Req: Another: O=C1c2ccccc2-c2c1c1ccccc1c(=O)n2Cc1ccccc1
Resp: 6.1

Req: O=c1[nH]c2cc(Cl)ccc2nc1/C=C(\O)c1ccccc1O ?
Resp: 3.35

Req: Can you check NC(=O)c1cc2c(c3c1CCCC3)CCCC2 next?
Resp: 4.2

Req: Next up: CC(=O)OC1=C(OC(C)=O)N(S(=O)(=O)c2ccc(C)cc2)CCc2ccccc21
Resp: 31.4

* * *

Experiment: NCI Yeast Anticancer Drug Screen. Data for the mec2-1 strain (AID 157)
Details: S. cerevisiae mec2-1 strain, at 50.0 µM, hits give high values
Compounds without any hit were thinned out: in the full panel of roughly 79,000, 15% have a hit. Calls of active or inactive are those of the source. No stated cut-off is given here; in the data, active means growth inhibition above about 70%; inactive means the rest.
measure: growth inhibition

Worked examples, 4 compounds total:
# compound, growth inhibition
records = [
    ("CC(=O)c1ccc(NC(=O)/C(=N\\NC(N)=O)C(C#N)CC(C)(C)C=O)cc1 (configuration not stated)", "17.4% (inactive)"),
    ("O=C(NCC1CC1)NC(=O)c1c(F)cccc1Cl", "-13% (inactive)"),
    ("NC(=S)n1nc(-c2ccccc2)c(N=Nc2ccc(Br)cc2)c1-c1ccccc1", "3.8% (inactive)"),
    ("OCCSCCCCCSCCO", "-7.7% (inactive)"),
]

Req: I would be grateful if you could share the reported growth inhibition for O=C1c2ccccc2C(=O)N1/N=C/c1ccc([N+](=O)[O-])cc1 .
Resp: -17% (inactive)

Req: For COC(=O)C1(C(=O)OC)C2CCCCC21 (configuration not stated) then?
Resp: 9.3% (inactive)

Req: Try CS(=O)(=O)CC(=O)c1ccc(Br)cc1 next.
Resp: -4.05% (inactive)

Req: Here is the next compound: O=C1O/C(=C(\Br)c2ccccc2)c2ccccc21
Resp: -1.4% (inactive)
